# test_system: T1, full length cynomolgus APLNR (cynomolgus monkey (Macaca fascicularis), UniProt O97666 1-380 (rhesus entry))
# T1 construct: Stably expressed on HEK293/CRE-luc/MfAPLNR cells; also called MfAPLNR; mfAPLNR
# T1 sequence: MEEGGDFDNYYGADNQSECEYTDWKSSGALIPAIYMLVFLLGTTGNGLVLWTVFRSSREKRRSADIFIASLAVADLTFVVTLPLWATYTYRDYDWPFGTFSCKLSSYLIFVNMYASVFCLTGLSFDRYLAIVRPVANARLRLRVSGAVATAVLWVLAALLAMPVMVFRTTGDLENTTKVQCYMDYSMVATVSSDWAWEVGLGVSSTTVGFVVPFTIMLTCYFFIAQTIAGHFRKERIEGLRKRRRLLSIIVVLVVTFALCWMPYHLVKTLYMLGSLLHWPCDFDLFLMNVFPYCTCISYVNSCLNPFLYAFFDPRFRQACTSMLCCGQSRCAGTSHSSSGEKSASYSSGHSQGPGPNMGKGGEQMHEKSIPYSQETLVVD
# assay_text: FACS, 10 µg/mL antibody, HEK293/CRE-luc/MfAPLNR cells
Would you mind telling me the reported Binding Ratio of Geom. Mean to Unstained Cells of each entry?
API: value field is a number in fold; no unit string.

Request: What value of Binding Ratio of Geom. Mean to Unstained Cells has been reported for the following binder? H2aM9230N (antibody, V domains shown, Human variable domains, mouse IgG2a Fc) VH: EVQLVESGGGLVQPGGSLRLSCAASGFTFSSFWMSWVRQVPGKGLQWVANIKQDGSEKYYVDSVKGRFTISRDNAKNSLYLQMNSLRAEDTAVYYCARDRFGYSVYDKGVRYYYGMDVWGQGTTVTVSS VL: DIQMTQSPSSLSVSVGDRVTITCRASQGIRNDLGWYQQKPGKAPKRLIYAASSLQSGVPSRFSGSGSGTEFTLTISGLQSEDFATYYCLQHKSYPRTFGQGTKVEIK
Response: 658

Request: Moving on to H2aM9227N (antibody, V domains shown, Human variable domains, mouse IgG2a Fc) VH: EVQLVESGGGLVQPGGSLRLSCAASGFTFSSFWMSWVRQVPGKGLEWVANIKQDGSEKYYVDSVKGRFTISRDNAKNSLYLQMNSLRAEDTAVYYCARDRFGYSFYDKGVRYYYGMDVWGQGTTVTVSS VL: DIQMTQSPSSLSVSVGDRVTITCRASQGIRNDLGWYQQKPGKAPKRLIYATSSLQSGVPSRFSGSGSGTEFTLTISGLQPEDFATYYCLQHNSYPRTFGQGTKVEIK
Response: 1440

Request: Moving on to H2aM9228N (antibody, V domains shown, Human variable domains, mouse IgG2a Fc) VH: EVQLVESGGGLVQPGGSLRLSCAASGFTFSNYWMSWVRLAPGKGLEWVANIKQDGSERYYVGSVKGRFTISRGDAKNSLYLQMNSLRAEDTAVYYCARDRFGYSAFDKGVRYYYGMDVWGQGTTVTVSS VL: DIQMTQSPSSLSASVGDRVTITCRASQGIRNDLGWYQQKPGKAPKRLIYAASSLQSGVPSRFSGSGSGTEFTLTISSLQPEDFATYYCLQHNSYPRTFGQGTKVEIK
Response: 108

Request: Moving on to H2aM9232N (antibody, V domains shown, Human variable domains, mouse IgG2a Fc) VH: QVKLVESGGGVVQPGRSLRLSCAASGFTFSNYVIHWVRQAPGKGLEWVAVIWYDGSNKYYADSVKGRFTISRDNSKNTLYLQMNSLRAEDTAVYYCARDRVVRGVDYYYYYGLDVWGQGTSVTVSS VL: EIVMTQSPATLSVSPGERATLSCRASQSVRSNLAWYQQKPGQAPRLLIYGASSRATGIPARFSGTGSGTEFTLTISSLQSDDFAVYYCQQYNKWPRTFGQGTKVEIK
Response: 678
